# Test system: Human Oral Mucosa Explant Tissues
# measurement protocol: Effect of final gel pH on anthocyanin uptake into human oral mucosa explant tissues
# Assay type: in vitro ADME
# test parameters: average of eleven explant samples; 10% w/w FBR gel
parameter: Anthocyanin uptake, Gel pH 3.5, Avg. ± SEM (pmol per mg tissue)
Give the value, in units of pmol per mg tissue, as a plain number.

Examples with their reported Anthocyanin uptake, Gel pH 3.5, Avg. ± SEM follow.
CC1OC(OCC2OC(Oc3cc4c(O)cc(O)cc4[o+]c3-c3ccc(O)c(O)c3)C(OC3OCC(O)C(O)C3O)C(O)C2O)C(O)C(O)C1O (stereo not shown) [cyanidin 3-xylosylrutinoside]; 5.4
OC[C@H]1O[C@@H](Oc2cc3c(O)cc(O)cc3[o+]c2-c2ccc(O)c(O)c2)[C@H](O)[C@@H](O)[C@@H]1O [cyanidin 3-glucoside]; 29.6
OC[C@H]1O[C@@H](Oc2cc3c(O)cc(O)cc3[o+]c2-c2ccc(O)c(O)c2)[C@H](O[C@@H]2OC[C@@H](O)[C@H](O)[C@H]2O)[C@@H](O)[C@@H]1O.[Cl-] [Cyanidin 3-sambubioside, cyanidin 3-sambubioside]; 1.9

Field: next compound
Any idea what its Anthocyanin uptake, Gel pH 3.5, Avg. ± SEM is? The compound is C[C@@H]1O[C@@H](OC[C@H]2O[C@@H](Oc3cc4c(O)cc(O)cc4[o+]c3-c3ccc(O)c(O)c3)[C@H](O)[C@@H](O)[C@@H]2O)[C@H](O)[C@H](O)[C@H]1O [cyanidin 3-rutinoside]
31.9

----------
# Test system: Human Oral Mucosa Explant Tissues
# measurement protocol: Effect of final gel pH on anthocyanin uptake into human oral mucosa explant tissues
# Type: in vitro ADME
# test parameters: explant sample 006; 10% w/w FBR gel
parameter: Anthocyanin uptake, Gel pH 3.5 (pmol per mg tissue)
Give the value, in units of pmol per mg tissue, as a plain number.

Examples with their reported Anthocyanin uptake, Gel pH 3.5 follow.
OC[C@H]1O[C@@H](Oc2cc3c(O)cc(O)cc3[o+]c2-c2ccc(O)c(O)c2)[C@H](O)[C@@H](O)[C@@H]1O [cyanidin 3-glucoside]; 31.5
OC[C@H]1O[C@@H](Oc2cc3c(O)cc(O)cc3[o+]c2-c2ccc(O)c(O)c2)[C@H](O[C@@H]2OC[C@@H](O)[C@H](O)[C@H]2O)[C@@H](O)[C@@H]1O.[Cl-] [Cyanidin 3-sambubioside, cyanidin 3-sambubioside]; 2.3
CC1OC(OCC2OC(Oc3cc4c(O)cc(O)cc4[o+]c3-c3ccc(O)c(O)c3)C(OC3OCC(O)C(O)C3O)C(O)C2O)C(O)C(O)C1O (stereo not shown) [cyanidin 3-xylosylrutinoside]; 9.9

Any idea what its Anthocyanin uptake, Gel pH 3.5 is? The compound is C[C@@H]1O[C@@H](OC[C@H]2O[C@@H](Oc3cc4c(O)cc(O)cc4[o+]c3-c3ccc(O)c(O)c3)[C@H](O)[C@@H](O)[C@@H]2O)[C@H](O)[C@H](O)[C@H]1O [cyanidin 3-rutinoside]
45.7

----------
# Tested on: Human Oral Mucosa Explant Tissues
# measurement protocol: Effect of final gel pH on anthocyanin uptake into human oral mucosa explant tissues
# Assay type: in vitro ADME
# test parameters: explant sample 005; 10% w/w FBR gel
Anthocyanin uptake, Gel pH 3.5 listing for selected molecules.
Give the value, in units of pmol per mg tissue, as a plain number.

Examples with their reported Anthocyanin uptake, Gel pH 3.5 follow.
CC1OC(OCC2OC(Oc3cc4c(O)cc(O)cc4[o+]c3-c3ccc(O)c(O)c3)C(OC3OCC(O)C(O)C3O)C(O)C2O)C(O)C(O)C1O (stereo not shown) [cyanidin 3-xylosylrutinoside]; 0.9
OC[C@H]1O[C@@H](Oc2cc3c(O)cc(O)cc3[o+]c2-c2ccc(O)c(O)c2)[C@H](O[C@@H]2OC[C@@H](O)[C@H](O)[C@H]2O)[C@@H](O)[C@@H]1O.[Cl-] [Cyanidin 3-sambubioside, cyanidin 3-sambubioside]; 0.3
C[C@@H]1O[C@@H](OC[C@H]2O[C@@H](Oc3cc4c(O)cc(O)cc4[o+]c3-c3ccc(O)c(O)c3)[C@H](O)[C@@H](O)[C@@H]2O)[C@H](O)[C@H](O)[C@H]1O [cyanidin 3-rutinoside]; 3.5

Field: next molecule
Any idea what its Anthocyanin uptake, Gel pH 3.5 is? The molecule is OC[C@H]1O[C@@H](Oc2cc3c(O)cc(O)cc3[o+]c2-c2ccc(O)c(O)c2)[C@H](O)[C@@H](O)[C@@H]1O [cyanidin 3-glucoside]
32.0
